- TEST SYSTEM: Histone deacetylase 1 (Homo sapiens)
- Sequence (Q13547 whole entry): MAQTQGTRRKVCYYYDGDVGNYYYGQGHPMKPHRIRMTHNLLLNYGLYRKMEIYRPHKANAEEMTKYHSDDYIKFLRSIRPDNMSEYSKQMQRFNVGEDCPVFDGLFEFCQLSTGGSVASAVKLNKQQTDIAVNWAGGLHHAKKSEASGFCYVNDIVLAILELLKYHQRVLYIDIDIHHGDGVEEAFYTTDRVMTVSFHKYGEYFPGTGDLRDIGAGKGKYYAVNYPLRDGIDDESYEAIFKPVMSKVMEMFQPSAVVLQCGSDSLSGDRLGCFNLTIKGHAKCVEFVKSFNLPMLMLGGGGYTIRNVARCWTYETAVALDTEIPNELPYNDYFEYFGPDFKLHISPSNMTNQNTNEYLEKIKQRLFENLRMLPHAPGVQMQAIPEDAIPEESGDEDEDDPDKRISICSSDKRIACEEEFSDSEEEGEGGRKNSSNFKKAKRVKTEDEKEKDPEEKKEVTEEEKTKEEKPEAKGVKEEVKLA
PROPERTY LABEL: IC50 (nM)

MOLECULE	VAL
Nc1ccccc1NC(=O)CCCCC(=O)Nc1ccc2c(c1)/C(=C/c1ccc[nH]1)C(=O)N2	1260
O=C(CCCCCCC(=O)Nc1ccc2c(c1)/C(=C/c1ccc[nH]1)C(=O)N2)NO	0.00687
O=C(CCCCC(=O)Nc1ccc2c(c1)/C(=C/c1ccc[nH]1)C(=O)N2)NO	9.37

###

Listed here are compounds together with their documented IC50.
- TEST SYSTEM: Platelet-derived growth factor receptor beta (Homo sapiens, UniProt P09619)
- Sequence (P09619 whole entry): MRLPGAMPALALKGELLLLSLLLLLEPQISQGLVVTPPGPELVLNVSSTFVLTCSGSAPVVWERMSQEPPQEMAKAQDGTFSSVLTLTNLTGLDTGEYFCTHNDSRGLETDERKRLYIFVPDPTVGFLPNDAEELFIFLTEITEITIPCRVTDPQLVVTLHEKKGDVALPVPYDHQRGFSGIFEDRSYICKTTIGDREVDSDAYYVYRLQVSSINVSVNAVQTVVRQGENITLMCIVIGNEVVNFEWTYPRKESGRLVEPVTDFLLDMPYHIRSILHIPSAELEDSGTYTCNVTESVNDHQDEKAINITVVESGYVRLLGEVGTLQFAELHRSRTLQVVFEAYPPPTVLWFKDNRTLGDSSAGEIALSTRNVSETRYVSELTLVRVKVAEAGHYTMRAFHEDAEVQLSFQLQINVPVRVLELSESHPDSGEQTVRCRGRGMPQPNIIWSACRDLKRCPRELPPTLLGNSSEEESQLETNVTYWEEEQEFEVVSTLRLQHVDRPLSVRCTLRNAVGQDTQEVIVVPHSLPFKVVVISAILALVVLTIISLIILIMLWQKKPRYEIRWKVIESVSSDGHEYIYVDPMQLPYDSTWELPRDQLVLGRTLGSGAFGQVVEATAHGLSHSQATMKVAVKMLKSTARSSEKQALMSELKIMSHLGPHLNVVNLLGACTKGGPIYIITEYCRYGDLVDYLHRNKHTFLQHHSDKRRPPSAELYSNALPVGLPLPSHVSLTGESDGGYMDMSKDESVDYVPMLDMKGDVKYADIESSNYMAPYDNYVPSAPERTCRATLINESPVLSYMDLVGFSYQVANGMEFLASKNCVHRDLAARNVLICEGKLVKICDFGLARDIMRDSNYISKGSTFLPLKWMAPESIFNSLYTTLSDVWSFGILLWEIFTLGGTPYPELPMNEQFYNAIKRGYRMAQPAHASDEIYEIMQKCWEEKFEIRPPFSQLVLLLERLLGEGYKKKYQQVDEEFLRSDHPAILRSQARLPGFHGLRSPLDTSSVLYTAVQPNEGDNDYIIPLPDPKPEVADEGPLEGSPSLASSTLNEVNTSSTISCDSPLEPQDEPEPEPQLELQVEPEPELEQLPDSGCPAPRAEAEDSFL
- ASSAY EXPLANATION: Inhibition of PDGFRb (unknown origin)
- EXPERIMENTAL CONDITIONS: read-out: IC50

MOLECULE	IC50, µM
O=C1Nc2ccc(O)cc2/C1=C/c1ccc[nH]1	0.637
O=C(CCCCC(=O)Nc1ccc2c(c1)/C(=C/c1ccc[nH]1)C(=O)N2)NO	0.518
O=C(CCCCCCC(=O)Nc1ccc2c(c1)/C(=C/c1ccc[nH]1)C(=O)N2)NO	0.185
CSCCCNC(=O)c1ccc2c(c1)/C(=C/c1[nH]c(C)cc1C)C(=O)N2	0.008

###

- TEST SYSTEM: Histone deacetylase 5 (Homo sapiens, UniProt Q9UQL6)
- Sequence (Q9UQL6 whole entry): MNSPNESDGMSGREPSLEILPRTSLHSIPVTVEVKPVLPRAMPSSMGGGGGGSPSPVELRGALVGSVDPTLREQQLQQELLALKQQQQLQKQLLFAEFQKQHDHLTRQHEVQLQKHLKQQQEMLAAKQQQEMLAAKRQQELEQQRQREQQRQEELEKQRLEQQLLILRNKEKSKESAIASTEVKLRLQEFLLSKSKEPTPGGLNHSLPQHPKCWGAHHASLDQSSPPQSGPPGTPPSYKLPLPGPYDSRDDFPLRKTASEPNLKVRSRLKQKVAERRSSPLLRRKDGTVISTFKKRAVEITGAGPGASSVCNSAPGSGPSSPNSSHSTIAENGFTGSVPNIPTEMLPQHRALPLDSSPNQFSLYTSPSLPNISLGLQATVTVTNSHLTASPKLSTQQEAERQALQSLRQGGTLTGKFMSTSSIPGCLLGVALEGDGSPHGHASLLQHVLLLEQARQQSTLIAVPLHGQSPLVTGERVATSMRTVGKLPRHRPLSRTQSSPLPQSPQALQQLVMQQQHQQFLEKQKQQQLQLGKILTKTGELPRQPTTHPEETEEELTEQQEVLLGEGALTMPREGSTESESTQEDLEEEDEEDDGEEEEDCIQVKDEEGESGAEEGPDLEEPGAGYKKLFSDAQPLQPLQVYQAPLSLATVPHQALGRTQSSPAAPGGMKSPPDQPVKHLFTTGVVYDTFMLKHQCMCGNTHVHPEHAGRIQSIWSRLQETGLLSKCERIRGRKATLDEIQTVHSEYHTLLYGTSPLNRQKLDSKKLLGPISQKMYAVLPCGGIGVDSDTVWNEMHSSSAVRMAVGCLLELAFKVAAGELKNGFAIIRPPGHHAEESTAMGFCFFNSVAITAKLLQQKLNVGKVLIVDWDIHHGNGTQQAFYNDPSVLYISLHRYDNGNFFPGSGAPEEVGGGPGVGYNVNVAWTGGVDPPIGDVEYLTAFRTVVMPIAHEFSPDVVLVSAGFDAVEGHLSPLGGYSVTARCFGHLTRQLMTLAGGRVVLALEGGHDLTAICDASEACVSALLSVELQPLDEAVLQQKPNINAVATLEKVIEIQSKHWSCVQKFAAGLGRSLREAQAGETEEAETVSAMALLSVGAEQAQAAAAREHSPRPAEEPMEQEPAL
- ASSAY EXPLANATION: Inhibition of HDAC5 (unknown origin)
PROPERTY LABEL: IC50

MOLECULE	VAL
O=C(CCCCC(=O)Nc1ccc2c(c1)/C(=C/c1ccc[nH]1)C(=O)N2)NO	Not Active
O=C(CCCCCCC(=O)Nc1ccccc1)NO [VORINOSTAT]	Not Active
Nc1ccccc1NC(=O)CCCCC(=O)Nc1ccc2c(c1)/C(=C/c1ccc[nH]1)C(=O)N2	Not Active
Nc1ccccc1NC(=O)CCCCCCC(=O)Nc1ccc2c(c1)/C(=C/c1ccc[nH]1)C(=O)N2	Not Active

Source of measurements: ChEMBL document CHEMBL3621077
